- Assayed Target: Histone-lysine N-methyltransferase EZH2 (Homo sapiens, UniProt Q15910)
- Sequence (Q15910 whole entry): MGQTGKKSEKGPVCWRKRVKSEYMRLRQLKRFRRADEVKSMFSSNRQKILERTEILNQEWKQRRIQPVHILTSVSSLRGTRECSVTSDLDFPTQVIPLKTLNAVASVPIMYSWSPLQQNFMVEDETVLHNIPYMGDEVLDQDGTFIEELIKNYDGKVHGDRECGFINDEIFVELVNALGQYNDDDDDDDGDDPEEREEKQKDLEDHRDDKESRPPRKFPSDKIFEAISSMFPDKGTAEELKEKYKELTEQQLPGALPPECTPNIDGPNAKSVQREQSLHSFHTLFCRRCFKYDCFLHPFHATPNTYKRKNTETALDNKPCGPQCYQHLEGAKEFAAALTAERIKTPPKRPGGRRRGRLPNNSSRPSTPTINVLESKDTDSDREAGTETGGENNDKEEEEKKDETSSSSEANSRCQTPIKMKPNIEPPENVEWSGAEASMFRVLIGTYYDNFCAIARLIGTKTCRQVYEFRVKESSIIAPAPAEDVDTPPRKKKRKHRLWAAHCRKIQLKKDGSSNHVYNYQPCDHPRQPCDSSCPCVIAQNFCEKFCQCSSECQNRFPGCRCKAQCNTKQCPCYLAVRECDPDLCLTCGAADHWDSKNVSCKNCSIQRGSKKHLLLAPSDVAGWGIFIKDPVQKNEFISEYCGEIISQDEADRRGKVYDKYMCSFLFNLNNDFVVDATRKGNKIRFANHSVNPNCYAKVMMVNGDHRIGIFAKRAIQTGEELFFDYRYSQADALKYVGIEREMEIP
Quantity Name: IC50 (nM)
Reply numerically in nM, unit not repeated.

Consider `Cc1ncsc1-c1ccc(CNC(=O)[C@@H]2C[C@@H](O)CN2C(=O)[C@@H](NC(=O)CCCNC(=O)c2ccc(-c3cnc(NCc4ccco4)n4cnnc34)cc2)C(C)(C)C)cc1` . Its measured IC50 is 300
